Molecular target: recombinant human ALDH2 (Homo sapiens (Human))
Sequence (P05091 18-517): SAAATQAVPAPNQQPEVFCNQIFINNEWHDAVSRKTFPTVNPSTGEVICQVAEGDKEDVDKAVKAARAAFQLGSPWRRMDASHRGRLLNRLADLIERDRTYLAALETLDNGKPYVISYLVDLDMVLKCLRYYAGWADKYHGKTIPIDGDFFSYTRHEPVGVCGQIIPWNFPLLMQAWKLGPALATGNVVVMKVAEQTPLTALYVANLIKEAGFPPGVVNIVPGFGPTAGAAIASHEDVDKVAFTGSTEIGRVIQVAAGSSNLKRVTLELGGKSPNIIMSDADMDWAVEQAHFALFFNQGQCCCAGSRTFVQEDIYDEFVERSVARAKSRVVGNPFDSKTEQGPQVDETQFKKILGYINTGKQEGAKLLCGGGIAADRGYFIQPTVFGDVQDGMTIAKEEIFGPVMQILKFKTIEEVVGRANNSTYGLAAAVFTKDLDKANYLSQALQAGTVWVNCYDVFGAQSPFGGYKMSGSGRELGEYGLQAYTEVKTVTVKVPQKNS
Test: ALDH2 assay (NADH formation)
Conditions: 60 min pre-incubation, 150 uM formaldehyde, 2.5 mM NAD+; read-out: IC50 HALDH2
Method: Standard ALDH2 reaction mixtures contained 150 uM formaldehyde, 2.5 mM NAD^+, 10 mM MgCl2 and 10 nM recombinant human ALDH2 in 50 mM Hepes buffer, pH 7.4, 0.01% Tween 20 in a final volume of 50 ul using 384-well plates. […] Activity of the enzyme was determined by monitoring NADH formation using Perkin-Elmer Envision Reader with excitation and emission wavelengths set at 340 and 460 nm, respectively. […]
pIC50: −log10 of the molar value.
The following compounds are shown together with reported pIC50 values.

SMI	RELATION OPERATOR	pIC50
Cn1ccc(-c2ccc(CNC(=O)c3c(Cl)cccc3Cl)cc2)cc1=O	=	5.68
O=C(NCc1ccc(-c2cc[nH]c(=O)c2)cc1)c1c(F)cccc1F	=	6.05
O=C(NCc1ccc(-c2ccn(COP(=O)(O)O)c(=O)c2)cc1)c1c(Cl)cccc1Cl	<	5.00
Cc1cc(CNC(=O)c2c(Cl)cccc2Cl)ccc1-c1cc[nH]c(=O)c1	=	6.32
COCCOc1cc(Cl)c(C(=O)NCc2ccc(-c3cc[nH]c(=O)c3)cc2)c(Cl)c1	=	7.20
Cc1cc(-c2ccc(CNC(=O)c3c(Cl)cccc3Cl)cc2)cc(=O)[nH]1	=	5.95
O=C(NCc1ccc(-c2cc[nH]c(=O)c2)cc1)c1c(Cl)cccc1Cl	=	6.99
O=C(NCc1ccc(-c2cc(=O)[nH]cc2F)cc1)c1c(Cl)cccc1Cl	=	7.60

----------
Target: recombinant human ALDH2 (Homo sapiens (Human))
Assay: ALDH2 assay (NADH formation)
Details: 60 min pre-incubation, 150 uM formaldehyde, 2.5 mM NAD+; read-out: IC50 HALDH2
Protocol: Standard ALDH2 reaction mixtures contained 150 uM formaldehyde, 2.5 mM NAD^+, 10 mM MgCl2 and 10 nM recombinant human ALDH2 in 50 mM Hepes buffer, pH 7.4, 0.01% Tween 20 in a final volume of 50 ul using 384-well plates. […] Activity of the enzyme was determined by monitoring NADH formation using Perkin-Elmer Envision Reader with excitation and emission wavelengths set at 340 and 460 nm, respectively. […]
pIC50: −log10 of the molar value.
The following compounds are shown together with reported pIC50 values.

SMI	MEASURED TARGET	pIC50
O=C(NCc1ccc(-c2cc[nH]c(=O)c2)cc1)c1c(F)ccc(F)c1Cl	recombinant human ALDH2 (Homo sapiens (Human))	6.33
O=C(NCc1ccc(-c2cc[nH]c(=O)c2)cc1)c1cccc(F)c1Cl	recombinant human ALDH2 (Homo sapiens (Human))	6.67
O=C(NCc1ccc(-c2cc[nH]c(=O)c2)cc1)c1c(F)cccc1Cl	recombinant human ALDH2 (Homo sapiens (Human))	6.42
Cc1cccc(Cl)c1C(=O)NCc1ccc(-c2cc[nH]c(=O)c2)cc1	recombinant human ALDH2 (Homo sapiens (Human))	7.64
Cc1cccc(C)c1C(=O)NCc1ccc(-c2cc[nH]c(=O)c2)cc1	recombinant human ALDH2 (Homo sapiens (Human))	6.78
O=C(NCc1ccc(-c2cc[nH]c(=O)c2)cc1F)c1c(Cl)cccc1Cl	recombinant human ALDH2 (Homo sapiens (Human))	6.52
